Data origin, for the record: patent US8642609B2

- System: ΔF508-CFTR (Homo sapiens, UniProt P13569, DEL508-508)
- Construct: expressed in transfected cells
- Sequence (P13569 with tags, fused parts or gaps DEL508-508): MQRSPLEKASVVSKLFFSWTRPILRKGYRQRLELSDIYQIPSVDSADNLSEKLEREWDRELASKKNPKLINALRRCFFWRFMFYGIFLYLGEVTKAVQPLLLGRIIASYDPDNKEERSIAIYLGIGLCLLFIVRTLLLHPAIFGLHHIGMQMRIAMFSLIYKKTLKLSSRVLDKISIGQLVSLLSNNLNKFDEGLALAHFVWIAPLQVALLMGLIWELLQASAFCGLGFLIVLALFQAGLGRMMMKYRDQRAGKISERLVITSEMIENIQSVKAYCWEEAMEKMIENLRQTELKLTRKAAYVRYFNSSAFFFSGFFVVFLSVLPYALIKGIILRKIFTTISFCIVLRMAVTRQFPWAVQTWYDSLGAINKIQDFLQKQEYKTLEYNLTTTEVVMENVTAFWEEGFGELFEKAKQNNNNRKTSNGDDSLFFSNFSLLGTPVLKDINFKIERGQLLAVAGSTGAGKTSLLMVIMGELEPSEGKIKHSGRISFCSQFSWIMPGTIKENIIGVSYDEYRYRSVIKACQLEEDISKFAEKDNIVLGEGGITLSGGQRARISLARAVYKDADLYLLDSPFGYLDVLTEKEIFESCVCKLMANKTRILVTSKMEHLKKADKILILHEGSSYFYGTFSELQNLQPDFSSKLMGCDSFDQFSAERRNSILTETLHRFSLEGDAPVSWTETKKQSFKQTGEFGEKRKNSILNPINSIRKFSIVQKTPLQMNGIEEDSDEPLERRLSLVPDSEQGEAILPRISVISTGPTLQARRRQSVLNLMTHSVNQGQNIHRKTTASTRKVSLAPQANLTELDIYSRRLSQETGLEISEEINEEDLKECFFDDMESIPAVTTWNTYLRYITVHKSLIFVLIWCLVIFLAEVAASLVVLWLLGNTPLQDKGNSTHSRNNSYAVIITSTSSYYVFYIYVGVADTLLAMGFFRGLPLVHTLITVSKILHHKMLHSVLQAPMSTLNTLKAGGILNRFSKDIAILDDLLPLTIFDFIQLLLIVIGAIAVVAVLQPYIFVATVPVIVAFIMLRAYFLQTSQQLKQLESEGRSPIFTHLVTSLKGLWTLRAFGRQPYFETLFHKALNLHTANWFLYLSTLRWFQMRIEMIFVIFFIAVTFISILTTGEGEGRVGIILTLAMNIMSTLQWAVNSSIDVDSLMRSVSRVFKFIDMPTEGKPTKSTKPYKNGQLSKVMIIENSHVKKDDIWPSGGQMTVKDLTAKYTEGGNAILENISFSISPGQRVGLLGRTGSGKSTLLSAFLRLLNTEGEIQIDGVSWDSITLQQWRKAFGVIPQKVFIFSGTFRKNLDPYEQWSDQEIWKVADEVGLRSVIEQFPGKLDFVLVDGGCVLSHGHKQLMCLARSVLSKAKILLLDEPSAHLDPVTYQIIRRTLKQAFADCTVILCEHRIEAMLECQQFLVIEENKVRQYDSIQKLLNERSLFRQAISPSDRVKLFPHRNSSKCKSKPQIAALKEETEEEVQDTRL
- Method Notes: Membrane potential optical assay (FRET/VIPR), identification of correction compounds
- Format: cell-based
pEC50: −log10 of the molar value.
Assignment: determine reported pEC50 for the given compounds.

Q. Specify pEC50 for CC(c1nc2ccccc2c(=O)n1C)N1CCN(S(=O)(=O)c2csc3ccccc23)CC1 (stereo not shown) and stop.
A. > 5.00

Q. Please report the measured pEC50 for CC(NC[C@@H]1CCCCN1S(=O)(=O)c1ccc(Br)cc1)c1nc2ccccc2c(=O)n1C (stereo partly shown)
A. 4.22 to 4.60

Q. Please list pEC50 recorded for the compound CC(c1nc2ccccc2c(=O)n1C)N1CCN(S(=O)(=O)c2ccc(CC#N)cc2)CC1 (stereo not shown)
A. 4.22 to 4.60

Q. Give pEC50 for the following compound: CC(c1nc2ccccc2c(=O)n1C)N1CCN(S(=O)(=O)c2cccc3cccnc23)CC1 (stereo not shown)
A. 4.22 to 4.60

Q. Name the recorded pEC50 of the item COc1ccc(S(=O)(=O)N2CCC(N(C)C(C)c3nc4ccccc4c(=O)n3C)CC2)cc1 (stereo not shown) in your answer.
A. 4.22 to 4.60

Q. Dear colleague, please send me the reported pEC50 for CC(c1nc2ccccc2c(=O)n1C)N1CCCNCC1 (stereo not shown) when you can.
A. 4.22 to 4.60

Q. Identify the reported pEC50 for the following entry. CC(Nc1ccc(NS(=O)(=O)c2ccc(Br)cc2)cc1)c1nc2ccccc2c(=O)n1C (stereo not shown)
A. > 5.00

Q. Determine from records and report pEC50 for CC(=O)Nc1ccc(S(=O)(=O)N2CCN(C(C)c3nc4cc(Cl)ccc4c(=O)n3C)CC2)cc1 (stereo not shown)
A. 4.60 to 5.00

Q. Report measured pEC50; entry is CCOc1nc(C(C)N2CCN(S(=O)(=O)c3ccc(OC)cc3)CC2)nc2ccccc12 (stereo not shown)
A. 4.60 to 5.00

Q. Answer with reported pEC50 of CC(c1nc2ccccc2c(=O)n1C)N1CCN(S(=O)(=O)c2ccc(Cl)cc2)CC1 (stereo not shown)
A. 4.60 to 5.00

Q. # return recorded pEC50 for entry COc1ccc(S(=O)(=O)N2CCN(C(C)c3nc(N4CCCCC4)c4ccccc4n3)CC2)cc1 (stereo not shown)
A. > 5.00

Q. Name the recorded pEC50 of the compound listed here: CNC(=O)c1cnc(C(C)N2CCN(S(=O)(=O)c3ccc(OC)cc3)CC2)nc1N1CCCCC1 (stereo not shown)
A. 4.22 to 4.60

Q. Output measured pEC50 for this item: Cc1cccc(C(=O)N2CCN(C(C)c3nc4cc(Cl)ccc4c(=O)n3C)CC2)c1 (stereo not shown)
A. 4.60 to 5.00

Q. Query pEC50 for CC(c1nc(N(C)C)c2ccccc2n1)N1CCN(S(=O)(=O)c2ccc(Br)cc2)CC1 (stereo not shown)
A. 4.22 to 4.60

Q. Identify pEC50 associated with the compound COc1ccc(S(=O)(=O)N2CC3CC2CN3C(C)c2nc3ccccc3c(=O)n2C)cc1 (stereo not shown)
A. 4.22 to 4.60

Q. Item COc1ccc(S(=O)(=O)N2CCN(C(C)c3nc4ccc(Cl)cc4c(=O)n3C)CC2)cc1 (stereo not shown) : provide pEC50
A. > 5.00

====

Would you mind telling me the reported Emax of each entry?
- System: ΔF508-CFTR (Homo sapiens, UniProt P13569, DEL508-508)
- Construct: expressed in transfected cells
- Method Notes: Membrane potential optical assay (FRET/VIPR), identification of correction compounds
- Format: cell-based
- Test Parameters: relative efficacy

Q. For ΔF508-CFTR (Homo sapiens, UniProt P13569, DEL508-508), give the measured Emax of the entry CC(c1nc2ccc(Cl)cc2c(=O)n1C)N1CCN(C(=O)c2ccc(C(F)(F)F)cc2)CC1 (stereo not shown)
A. < 25%

Q. Given CCn1c(C(C)N2CCN(S(=O)(=O)c3ccc(Cl)c([N+](=O)[O-])c3)CC2)nc2ccc(Cl)cc2c1=O (stereo not shown) , report its Emax on ΔF508-CFTR (Homo sapiens, UniProt P13569, DEL508-508).
A. < 25%

Q. Please report the measured Emax for COc1ccc(S(=O)(=O)N2CCN(C(C)c3nc(N4CCN(C)CC4)c4ccccc4n3)CC2)cc1 (stereo not shown) tested on ΔF508-CFTR (Homo sapiens, UniProt P13569, DEL508-508).
A. 25 to 100%

Q. Specify Emax for COc1ccc(S(=O)(=O)N2CCN(C(C)c3nc(N4CCCCCC4)c4ccccc4n3)CC2)cc1 (stereo not shown) , system ΔF508-CFTR (Homo sapiens, UniProt P13569, DEL508-508).
A. 25 to 100%

Q. GET Emax | system: ΔF508-CFTR (Homo sapiens, UniProt P13569, DEL508-508) | item: CC(c1nc2ccccc2c(=O)n1C)N1CCN(S(=O)(=O)c2ccc(-c3ccccc3)cc2)CC1 (stereo not shown)
A. < 25%

Q. # assay system ΔF508-CFTR (Homo sapiens, UniProt P13569, DEL508-508): give Emax of CC(c1nc2ccccc2c(=O)n1C)N1CC2CC1CN2S(=O)(=O)c1ccc(Cl)cc1 (stereo not shown)
A. 25 to 100%

Q. Lab note: ΔF508-CFTR (Homo sapiens, UniProt P13569, DEL508-508) assay, enter Emax for CC(c1nc2ccccc2c(=O)n1C)N1CCN(C(=O)c2ccc(C(F)(F)F)cc2)CC1 (stereo not shown) here
A. 25 to 100%

Q. Give the observed Emax of CC(c1nc2ccccc2c(=O)n1C)N1CCN(S(=O)(=O)c2ccc(-c3ccon3)s2)CC1 (stereo not shown) for ΔF508-CFTR (Homo sapiens, UniProt P13569, DEL508-508).
A. < 25%

Q. Give ΔF508-CFTR (Homo sapiens, UniProt P13569, DEL508-508) Emax for the following molecule: CCCOc1nc(C(C)N2CCN(S(=O)(=O)c3ccc(Br)cc3)CC2)nc2ccccc12 (stereo not shown)
A. > 100%

Q. Param request: Emax | system ΔF508-CFTR (Homo sapiens, UniProt P13569, DEL508-508) | item CC(c1nc2ccccc2c(=O)[nH]1)N1CCN(S(=O)(=O)c2ccc(Br)cc2)CC1 (stereo not shown)
A. 25 to 100%

Q. Specify the recorded Emax for CC(c1nc2ccccc2c(=O)n1C)N1CC2CC1CN2S(=O)(=O)c1ccc(Br)cc1 (stereo not shown) , system: ΔF508-CFTR (Homo sapiens, UniProt P13569, DEL508-508).
A. 25 to 100%

Q. Enter measured Emax, system ΔF508-CFTR (Homo sapiens, UniProt P13569, DEL508-508), for the molecule shown: COc1ccc(S(=O)(=O)N2CCN(C(C)c3nc4ccccc4c(=O)n3C)CC2)cc1OC (stereo not shown)
A. < 25%

Q. Would you please give the reported Emax of CC(c1nc2ccccc2c(=O)n1C)N1CCN(S(=O)(=O)N(C)C)CC1 (stereo not shown) with ΔF508-CFTR (Homo sapiens, UniProt P13569, DEL508-508)?
A. < 25%

Q. Fill in Emax for COc1ccc(S(=O)(=O)N2CCN(C(C)c3nc(N4CC5CCC4C5)c4ccccc4n3)CC2)cc1 (stereo not shown) tested with ΔF508-CFTR (Homo sapiens, UniProt P13569, DEL508-508).
A. > 100%

Q. GET Emax where system = ΔF508-CFTR (Homo sapiens, UniProt P13569, DEL508-508) and item = CC(c1nc2ccccc2c(=O)n1C)N1CCN(S(=O)(=O)c2ccc(SC(F)(F)F)cc2)CC1 (stereo not shown)
A. 25 to 100%

Q. Provide Emax, system ΔF508-CFTR (Homo sapiens, UniProt P13569, DEL508-508), entry CC(c1nc2ccccc2c(=O)n1C)N(CCCNS(=O)(=O)c1ccc(Cl)cc1)S(=O)(=O)c1ccc(Cl)cc1 (stereo not shown)
A. < 25%

====

- System: ΔF508-CFTR (Homo sapiens, UniProt P13569, DEL508-508)
- Method Notes: Membrane potential optical assay (FRET/VIPR), identification of correction compounds
Observation Type: EC50

Q. # return recorded EC50 for input CC(c1nc2ccc(Cl)cc2c(=O)n1C)N1CCN(C(=O)c2cccc(Cl)c2)CC1 (stereo not shown)
A. 10 to 25 µM

Q. Quick one: give measured EC50 for CC(c1nc2cc(Cl)ccc2c(=O)n1C)N1CCN(C(=O)c2cccc(C(F)(F)F)c2)CC1 (stereo not shown)
A. 10 to 25 µM

Q. Consider the molecule CC(c1nc2ccccc2c(=O)n1C)N(CCN(C)S(=O)(=O)c1ccc(Cl)cc1)S(=O)(=O)c1ccc(Cl)cc1 (stereo not shown) and give its recorded EC50.
A. 25 to 60 µM

Q. Tell me measured EC50 for COc1ccc(S(=O)(=O)N2CCN(C(C)c3nc4cc(Cl)ccc4c(=O)n3C)CC2)cc1 (stereo not shown) please.
A. < 10 µM

Q. Report measured EC50; entry is CC(c1nc(N2CCOCC2)c2ccccc2n1)N1CCN(S(=O)(=O)c2ccc(Cl)cc2)CC1 (stereo not shown)
A. 25 to 60 µM

Q. Item COCCn1c(C(C)N2CCN(S(=O)(=O)c3ccc(OC)cc3)CC2)nc2ccccc2c1=O (stereo not shown) : provide EC50
A. 10 to 25 µM

Q. Complete the entry with EC50 for COc1cc2nc(C(C)N3CCN(S(=O)(=O)c4ccc(Cl)cc4)CC3)n(C)c(=O)c2cc1OC (stereo not shown)
A. 25 to 60 µM
